- Measurement Target: UniProt:P21453
- Sequence (P21453 whole entry): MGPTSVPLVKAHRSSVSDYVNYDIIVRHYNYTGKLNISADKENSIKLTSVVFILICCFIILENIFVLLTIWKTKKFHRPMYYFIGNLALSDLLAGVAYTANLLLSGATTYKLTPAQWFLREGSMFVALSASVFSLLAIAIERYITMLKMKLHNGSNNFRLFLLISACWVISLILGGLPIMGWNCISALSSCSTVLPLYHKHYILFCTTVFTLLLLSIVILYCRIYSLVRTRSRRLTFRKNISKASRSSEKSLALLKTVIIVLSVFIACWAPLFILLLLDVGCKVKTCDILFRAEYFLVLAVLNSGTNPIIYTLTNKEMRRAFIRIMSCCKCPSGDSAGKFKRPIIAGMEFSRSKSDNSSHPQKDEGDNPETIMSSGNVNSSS
- Test Description: HTRF assay for direct cAMP measurement
- Assay Setup: recombinant CHO-K1 cells stably transfected with S1P1; n = 22
Observation Type: EC50 (nM)
Numeric only. Scale: nM

Report EC50, nothing else, for this molecule: O=C(O)C[C@H]1CCc2c1[nH]c1ccc(OCc3ccc(C4CCCC4)c(C(F)(F)F)c3)cc21
0.102
